biological target: hSERT (Homo sapiens, UniProt P31645); construct: expressed in transfected cells; host or cells: HEK-293 cells (crude membranes); test: SERT radioligand binding assay
Sequence (P31645 whole entry): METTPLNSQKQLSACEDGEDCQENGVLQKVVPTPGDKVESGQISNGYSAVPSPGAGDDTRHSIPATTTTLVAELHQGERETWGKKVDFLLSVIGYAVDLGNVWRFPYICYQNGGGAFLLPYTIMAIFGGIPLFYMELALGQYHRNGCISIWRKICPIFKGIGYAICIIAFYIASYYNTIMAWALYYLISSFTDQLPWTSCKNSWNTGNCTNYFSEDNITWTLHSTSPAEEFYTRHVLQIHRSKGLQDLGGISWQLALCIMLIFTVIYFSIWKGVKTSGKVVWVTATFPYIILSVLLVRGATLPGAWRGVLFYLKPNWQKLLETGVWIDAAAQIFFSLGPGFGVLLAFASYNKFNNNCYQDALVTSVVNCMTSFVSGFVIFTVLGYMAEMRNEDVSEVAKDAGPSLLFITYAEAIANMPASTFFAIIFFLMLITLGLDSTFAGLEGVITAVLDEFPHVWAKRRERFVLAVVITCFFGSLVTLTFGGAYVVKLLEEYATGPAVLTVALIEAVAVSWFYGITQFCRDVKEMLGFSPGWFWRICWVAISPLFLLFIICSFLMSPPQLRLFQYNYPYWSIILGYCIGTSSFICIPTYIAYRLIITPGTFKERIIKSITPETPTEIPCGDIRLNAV
measurementKind: IC50

Some solved cases for reference:
COc1ccc(-c2cc(C(F)(F)F)cc(COCC3(c4ccc(F)cc4)CCN(C)CC3)n2)cc1F [Example 75]    0.01 to 100 nM
CN1CCC(COCc2cc(C(F)(F)F)cc(-c3ccncc3)n2)(c2ccccc2)CC1 [Example 39]    0.01 to 100 nM
CN1CCC(COCc2cc(C(F)(F)F)cc(N3CCC(F)(F)C3)n2)(c2ccc(F)cc2)CC1 [Example 89]    0.01 to 100 nM

For this compound ( Cc1cc(-c2cc(C(F)(F)F)cc(COCC3(c4ccc(F)cc4)CCN(C)CC3)n2)ccc1C#N [Example 61] ), measured IC50 is 0.01 to 100 nM

For this compound ( CN1CCC(COCc2cc(C(F)(F)F)cc(N3CC[C@H](F)C3)n2)(c2ccc(F)cc2)CC1 [Example 91] ), measured IC50 is 0.01 to 100 nM

For this compound ( COc1cc(COCC2(c3ccc(F)cc3)CCN(C)CC2)cc(C(F)(F)F)n1 [Example 80] ), measured IC50 is 0.01 to 100 nM

For this compound ( COc1cc(C(C)OCC2(c3ccc(F)cc3)CCN(C)CC2)cc(-c2ccc(C#N)cc2)n1 (centres unmarked) [Example 79] ), measured IC50 is 0.01 to 100 nM

For this compound ( COc1ccc(-c2cc(C(F)(F)F)cc(COCC3(c4ccccc4)CCN(C)CC3)n2)cc1 [Example 38] ), measured IC50 is 0.01 to 100 nM
